- target.system: Bub1 (Homo sapiens)
- Construct: catalytic domain of human Bub1 (amino acids 704-1085); His6 (N); made in house; host or cells: insect cells (Hi5)
- Sequence (O43683 704-1085): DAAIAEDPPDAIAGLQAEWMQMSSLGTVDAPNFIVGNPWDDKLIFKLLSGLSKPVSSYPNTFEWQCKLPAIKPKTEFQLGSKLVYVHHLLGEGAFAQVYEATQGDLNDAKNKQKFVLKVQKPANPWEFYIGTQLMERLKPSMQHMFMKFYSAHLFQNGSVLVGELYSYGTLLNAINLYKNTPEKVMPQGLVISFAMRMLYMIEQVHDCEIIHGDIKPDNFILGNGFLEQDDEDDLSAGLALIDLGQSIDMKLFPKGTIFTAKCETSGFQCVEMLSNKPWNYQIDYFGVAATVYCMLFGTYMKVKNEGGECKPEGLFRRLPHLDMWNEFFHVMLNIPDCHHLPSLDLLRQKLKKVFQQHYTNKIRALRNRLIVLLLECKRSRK
- test.name: Bub1 high ATP kinase assay (TR-FRET)
- Type: biochemical
- cond: Bub1 high ATP (2 mM) IC50, TR-FRET, 2 mM ATP; Table 3
pIC50: −log10 of the molar value.
The molecules listed here are annotated with their pIC50.

Consider the worked cases shown below.
| molecule | target.system | pIC50 |
| --- | --- | --- |
| COc1c(Cl)cccc1Nc1c(-c2ccncc2OCC2OCCCC2(F)F)[nH]c2c1C(=O)N[C@H](C)C2 (single isomer, unassigned) [Example 76] | Bub1 (Homo sapiens) | < 5.24 |
| COc1c(Cl)cccc1Nc1c(-c2ccncc2OC[C@@H]2CN(C)CCO2)[nH]c2c1C(=O)N[C@@H]1CCC[C@H]21 [Example 64] | Bub1 (Homo sapiens) | < 4.70 |
| COc1c(Cl)cccc1Nc1c(-c2ccncc2OC[C@@H]2CCCO2)[nH]c2c1C(=O)NCC2CCO (mixture of isomers) [Example 16] | Bub1 (Homo sapiens) | < 4.70 |
| COc1c(Cl)cccc1Nc1c(-c2ccncc2OC[C@@H]2CCCO2)[nH]c2c1C(=O)NCC2C (single isomer, unassigned) [Example 31] | Bub1 (Homo sapiens) | < 4.70 |
| COc1c(Cl)cccc1Nc1c(-c2ccncc2OC[C@@H]2CCCO2)[nH]c2c1C(=O)NCC2CCO (single isomer, unassigned) [Example 17] | Bub1 (Homo sapiens) | < 4.70 |

Prompt line: Suppose we examine the molecule Cc1c(Cl)cccc1Nc1c(-c2ccncc2OC[C@@H]2CN(C)CCO2)[nH]c2c1C(=O)N[C@H](C)C2 [Example 107] ; what pIC50 value has been reported?
Response line: < 4.70

* * *

- target.system: Bub1 (Homo sapiens)
- Construct: catalytic domain of human Bub1 (amino acids 704-1085); His6 (N); made in house; host or cells: insect cells (Hi5)
- test.name: Bub1 high ATP kinase assay (TR-FRET)
- Assay type: biochemical
- cond: Bub1 high ATP (2 mM) IC50, TR-FRET, 2 mM ATP; Table 3
- Source text: Bub1 high ATP Kinase Assay Bub1-inhibitory activity of compounds of the present invention at a high ATP concentration was quantified employing the Bub1 TR-FRET high ATP kinase assay as described in the following paragraphs. N-terminally His6-tagged recombinant catalytic domain of human Bub1 (amino acids 704-1085), expressed in insect cells (Hi5) and purified by Ni-NTA affinity chromatography and subsequent size exclusion chromatography, was used as enzyme. […]
pIC50: −log10 of the molar value.
measurement.name: pIC50

Consider the worked cases shown below.
| molecule | pIC50 |
| --- | --- |
| COc1c(Cl)cccc1Nc1c(-c2ccncc2OCC2(C)CCO2)[nH]c2c1C(=O)NCC2CCO (single isomer, unassigned) [Example 23] | < 4.70 |
| COc1c(Cl)cccc1Nc1c(-c2ccncc2OCC2CCCCO2)[nH]c2c1C(=O)NCC2C (single isomer, unassigned) [Example 46] | < 4.70 |
| COCC(C)Oc1cnccc1-c1[nH]c2c(c1Nc1cccc(Cl)c1OC)C(=O)N[C@@H]1CCC[C@H]21 (stereo partly shown) [Example 49] | 4.88 |

Prompt line: Suppose we examine the molecule COc1c(Cl)cccc1Nc1c(-c2ccncc2OC[C@@H]2CN(CC(F)F)CCO2)[nH]c2c1C(=O)N[C@H](C)C2 ; what pIC50 value has been reported?
Response line: < 4.70
